Where do the numbers come from? From ChEMBL document CHEMBL3098109.

assay: Oral bioavailability in rat at 2 mg/kg; format: ADME, organism-based; conditions: in vivo
observable: bioavailability (%)
Give bare numbers, in %.

Query: // query bioavailability value for entry `Cc1cccc(NC(=O)c2ccc(C(F)(F)F)cc2C(=O)O)n1`
Response: 35

---

molecular target: Sortilin (Homo sapiens, UniProt Q99523)
Sequence (Q99523 whole entry): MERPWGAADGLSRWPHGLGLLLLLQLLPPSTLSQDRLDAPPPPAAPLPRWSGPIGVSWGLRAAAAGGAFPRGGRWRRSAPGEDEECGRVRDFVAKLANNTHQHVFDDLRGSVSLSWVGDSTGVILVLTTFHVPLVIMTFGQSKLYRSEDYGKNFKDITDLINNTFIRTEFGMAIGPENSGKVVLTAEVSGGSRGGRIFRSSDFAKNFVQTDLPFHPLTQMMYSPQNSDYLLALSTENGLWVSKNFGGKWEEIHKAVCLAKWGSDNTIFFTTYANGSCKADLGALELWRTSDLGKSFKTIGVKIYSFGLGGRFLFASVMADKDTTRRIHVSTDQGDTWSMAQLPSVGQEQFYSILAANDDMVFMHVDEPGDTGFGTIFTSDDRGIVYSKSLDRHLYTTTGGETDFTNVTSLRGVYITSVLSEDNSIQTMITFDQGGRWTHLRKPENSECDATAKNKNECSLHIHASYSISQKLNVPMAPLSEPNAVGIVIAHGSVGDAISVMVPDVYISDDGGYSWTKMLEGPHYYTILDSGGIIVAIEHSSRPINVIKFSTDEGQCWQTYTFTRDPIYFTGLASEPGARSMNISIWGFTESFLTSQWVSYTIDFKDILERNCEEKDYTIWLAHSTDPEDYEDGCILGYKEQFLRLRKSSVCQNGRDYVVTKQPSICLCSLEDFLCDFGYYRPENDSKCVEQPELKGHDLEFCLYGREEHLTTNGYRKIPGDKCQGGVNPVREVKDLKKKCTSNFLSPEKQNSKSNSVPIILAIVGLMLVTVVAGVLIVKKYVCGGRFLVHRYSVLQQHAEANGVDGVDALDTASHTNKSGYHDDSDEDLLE
observable: pIC50
Numbers only, as −log10 of the molar value.

Query: // query pIC50 value for entry `Cc1cc(=O)oc2c(CN[C@@H](CC(C)C)C(=O)O)c(O)ccc12`
Response: 5.40

---

experiment: Cmax in rat at 2 mg/kg, po; format: ADME, organism-based; parameters: dose 2 mg/kg, route oral; details: in vivo
observable: Cmax (ng/mL)
Numbers only, in ng/mL.

Query: // query Cmax value for entry `Cc1cccc(NC(=O)c2ccc(C(F)(F)F)cc2C(=O)O)n1`
Response: 12800
